experimental protocol: High throughput kinetic solubility measurement
Assay type: physicochemical
assay setup: phosphate buffer, pH 6.5, aqueous buffer, kinetic from dmso stock
outcome measure: solubility kinetic

Prompt: Which solubility kinetic value belongs to O=C1CO[C@H]2CCN(C(=O)N3CC4(CC(CC5=C6C=CC(c7ccc[nH]7)=[N+]6[B-](F)(F)n6cccc65)C4)C3)C[C@H]2N1 [Compound 4a] ?
Response: < 0.3 µg/mL

Prompt: Can you handle O=C(O[C@H](CO)C(F)(F)F)N1CC2(CC(CC3=C4C=CC(c5ccc[nH]5)=[N+]4[B-](F)(F)n4cccc43)C2)C1 [Compound 1a] next?
Response: < 1 µg/mL

Prompt: Can you handle O=C(OC(C(F)(F)F)C(F)(F)F)N1CC2(CC(CC3=C4C=CC=[N+]4[B-](F)(F)n4cccc43)C2)C1 [Compound 2] next?
Response: < 3 µg/mL

Prompt: Can you handle O=C(N1CC2(CC(CC3=C4C=CC(c5ccc[nH]5)=[N+]4[B-](F)(F)n4cccc43)C2)C1)N1CC2(CC(n3cnc(C4CC4)n3)C2)C1 [Compound 5a] next?
Response: < 0.1 µg/mL

Prompt: Can you handle O=C(OC(C(F)(F)F)C(F)(F)F)N1CC2(CC(CC3=C4C=CC(c5ccc[nH]5)=[N+]4[B-](F)(F)n4cccc43)C2)C1 [Compound 2a] next?
Response: < 1 µg/mL

// data source = paper PMC11951083
